System: osteoclast (TRAP-positive multinuclear cell) formation
Assay: Inhibitory effect on osteoclast formation (TRAP staining)
Format: cell-based, mice
Settings: Mus musculus, Osteoclast; 1 μM (Table 4b); compared to control; read-out: Osteoclast formation inhibitory effects (%)
inhibition at 1 µM overview
measure name: inhibition at 1 µM (%)

                                   molecule  result_units  assay_value
0  CO/C=C(/C(=O)OC)c1ccccc1COc1ccc(N(C)c2ccccc2)c(F)c1 [compound 417]             %           97
1  C=CCN(CC=C)c1ccc(OCc2ccccc2/C(=C\OC)C(=O)OC)c(F)c1 [compound 421]             %          100
2  CO/C=C(/C(=O)OC)c1ccccc1COc1ccc(N2CCCC2)c(F)c1 [compound 418]             %           81
3  CO/C=C(/C(=O)OC)c1ccccc1COc1ccc(N(C)CC(C)C)cc1F [Compound No. 426]             %          100
4  CO/C=C(/C(=O)OC)c1ccccc1COc1cccc(NC2CCCC2)c1 [compound 380]             %           51
5  CO/C=C(/C(=O)OC)c1ccccc1COc1ccc(N2CCCCC2)c(F)c1 [compound 416]             %          100
6  CO/C=C(/C(=O)OC)c1ccccc1COc1cccc(N2CCN(C(=O)OC(C)(C)C)CC2)c1 [compound 406]             %          100
7  CO/C=C(/C(=O)OC)c1ccccc1COc1ccc(N(CC2CC2)CC2CC2)cc1F [compound 422]             %          100
8  CO/C=C(/C(=O)OC)c1ccccc1COc1ccc(N2CCCC2)cn1 [compound 397]             %          100
9  CO/C=C(/C(=O)OC)c1ccccc1COc1cccc(N(C)c2ccccc2)n1 [compound 414]             %          100

* * *

Test system: rats
Experiment: In vivo acute toxicity test (LD50)
Settings: SC, single dose, 2 weeks observation
measure name: LD50 (mg/kg body weight)

In [3]: df
Out[3]:
                                   compound  result_operator  assay_value
0  CO/C=C(/C(=O)OC)c1ccccc1COc1cccc(OCCN2CCOCC2)c1                =            7
1  CCCCCCOc1cccc(/C(C)=N/OCc2ccccc2/C(=C\OC)C(=O)OC)c1                >           50
2  C=CCOc1ccc(OCc2cc(Cl)ccc2/C(=C\OC)C(=O)OC)cc1                =           25
3  CO/C=C(/C(=O)OC)c1ccc(Cl)cc1COc1ccc(OCC2CC2)cc1                =            5
4  CO/C=C(/C(=O)OC)c1ccccc1COc1cccc(C(C)F)c1 (centres unmarked)                =           10
5  C=CCOc1ccc(OCc2ccccc2/C(=C\OC)C(=O)OC)cc1                =           42
6  C=CCOc1cccc(OCc2ccccc2/C(=C\OC)C(=O)OC)c1                =           51
7  CO/C=C(/C(=O)OC)c1ccc(Cl)cc1COc1ccc(OCCOC)cc1                =           11

* * *

Tested on: MG-63 cells
Assay: Cytotoxicity test against osteoblast (MTT)
Type: cell-based, human
Conditions: 0.11 uM
As shown below, each of these compounds has a reported relative absorbance relative to that of the control (set as 100), MTT value.
measure name: relative absorbance relative to that of the control (set as 100), MTT

                         structure_notation  system_tested  assay_value
0  C=CCOc1cccc(OCc2ccccc2/C(=C\OC)C(=O)OC)c1    MG-63 cells          103
1  CO/C=C(/C(=O)OC)c1ccc(Cl)cc1COc1ccc(OCCOC)cc1    MG-63 cells          113
2  C=CCCCCCCOc1cccc(OCc2ccccc2/C(=C\OC)C(=O)OC)c1    MG-63 cells          112
3  C=CCOc1ccc(OCc2cc(Cl)ccc2/C(=C\OC)C(=O)OC)cc1    MG-63 cells          103
4  CO/C=C(/C(=O)OC)c1ccccc1COc1cccc(C(OC)OC)c1    MG-63 cells          103
5  C=CCOc1ccc(OCc2ccccc2/C(=C\OC)C(=O)OC)cc1    MG-63 cells          117

* * *

System: osteoclasts
Assay: Inhibitory effect on resorption activity of osteoclast (resorption pit area on calcium phosphate-coated plate)
Assay type: cell-based, mice
Details: 1 uM, compared to control
measure name: Reduction (%) of the resorption pit area of osteoclasts

>>> print(df.to_string())
                                    molecule  assay_value
 0  CCCCCCOc1cccc(OCc2ccccc2/C(=C\OC)C(=O)OC)c1 [compound 220]           70
 1  CO/C=C(/C(=O)OC)c1ccccc1COc1cccc(OC2CCCC2)c1 [compound 222]          100
 2  C=CCOc1ccc(OCc2ccccc2/C(=C\OC)C(=O)OC)cc1 [compound 179]          100
 3  C=CCCOc1ccc(OCc2ccccc2/C(=C\OC)C(=O)OC)cc1 [compound 178]          100
 4  CO/C=C(/C(=O)OC)c1ccccc1COc1cccc(OCC2CC2)c1 [compound 215]          100
 5  CO/C=C(/C(=O)OC)c1ccccc1CON=C(C)c1cccc(OCCN2CCOCC2)c1 [compound 20]           26
 6  C=CCOc1cccc(OCc2ccccc2/C(=C\OC)C(=O)OC)c1 [compound 211]          100
 7  CCOc1ccc(OCc2ccccc2/C(=C\OC)C(=O)OC)cc1 [compound 183]          100
 8  CO/C=C(/C(=O)OC)c1ccccc1COc1ccc(C2OCCCO2)cc1 [compound 161]          100
 9  CO/C=C(/C(=O)OC)c1ccc(Cl)cc1COc1ccc(OCC=C(C)C)cc1 [compound 269]          100
10  CO/C=C(/C(=O)OC)c1ccccc1COc1cccc(C(OC)OC)c1 [compound 133]           99
11  CO/C=C(/C(=O)OC)c1ccc(Cl)cc1COc1ccc(OCCOC)cc1 [Compound No. 274]          100

* * *

In this section we review reported relative absorbance relative to that of the control (set as 100), MTT values for a set of compounds.
Test system: osteoclast pregenitor cells
Test: Cytotoxicity against osteoclast pregenitor (MTT)
Type: cell-based, mice
Details: 2 uM; 48 hrs; absorbance at 550 nm
measure name: relative absorbance relative to that of the control (set as 100), MTT

>>> df
                                   compound  assay_value
0  CO/C=C(/C(=O)OC)c1ccccc1COc1cccc(OC2CCCC2)c1           97
1  C=CCOc1cccc(OCc2ccccc2/C(=C\OC)C(=O)OC)c1           88
2  CO/C=C(/C(=O)OC)c1ccccc1COc1cccc(C(F)CC(C)=O)c1 (centres unmarked)          102
3  CO/C=C(/C(=O)OC)c1ccccc1COc1cccc(OCC2CC2)c1           96
4  CO/C=C(/C(=O)OC)c1ccccc1COc1cccc(OCC(C)C)c1           90

* * *

# relative absorbance relative to that of the control (set as 100), MTT listing for each entry below
Tested on: osteoclast pregenitor cells
Test: Cytotoxicity against osteoclast pregenitor (MTT)
Assay type: cell-based, mice
Settings: 8 uM; 48 hrs; absorbance at 550 nm
measure name: relative absorbance relative to that of the control (set as 100), MTT

In [3]: df
Out[3]:
                                   compound  assay_value
0  CO/C=C(/C(=O)OC)c1ccccc1COc1cccc(OCC2CC2)c1 [compound 215]          107
1  CO/C=C(/C(=O)OC)c1ccccc1COc1cccc(C(OC)OC)c1 [compound 133]          102
2  CO/C=C(/C(=O)OC)c1ccccc1COc1cccc(OCC(C)C)c1 [compound 219]           99
3  CO/C=C(/C(=O)OC)c1ccccc1COc1cccc(OCC=C(C)C)c1 [compound 217]          107
4  C=CCOc1cccc(OCc2ccccc2/C(=C\OC)C(=O)OC)c1 [compound 211]          103

* * *

Test system: osteoclast pregenitor cells
Test: Cytotoxicity against osteoclast pregenitor (MTT)
Assay type: cell-based, mice
Conditions: 4 uM; 48 hrs; absorbance at 550 nm
measure name: relative absorbance relative to that of the control (set as 100), MTT

>>> print(df.to_string())
                                   compound                system_tested  assay_value
0  CO/C=C(/C(=O)OC)c1ccccc1COc1cccc(C(OC)OC)c1  osteoclast pregenitor cells          104
1  CO/C=C(/C(=O)OC)c1ccccc1COc1cccc(C(F)CC(C)(F)F)c1 (centres unmarked)  osteoclast pregenitor cells          109
2  CO/C=C(/C(=O)OC)c1ccccc1COc1cccc(OCC(C)C)c1  osteoclast pregenitor cells          100
3  CO/C=C(/C(=O)OC)c1ccccc1COc1cccc(OCC2CC2)c1  osteoclast pregenitor cells          102
4  CCC(C)Oc1cccc(OCc2ccccc2/C(=C\OC)C(=O)OC)c1 (centres unmarked)  osteoclast pregenitor cells           96
